Source listed as patent US20090209602A1.

Target: human DGAT1 (Homo sapiens)
Sequence (O75907 1-488): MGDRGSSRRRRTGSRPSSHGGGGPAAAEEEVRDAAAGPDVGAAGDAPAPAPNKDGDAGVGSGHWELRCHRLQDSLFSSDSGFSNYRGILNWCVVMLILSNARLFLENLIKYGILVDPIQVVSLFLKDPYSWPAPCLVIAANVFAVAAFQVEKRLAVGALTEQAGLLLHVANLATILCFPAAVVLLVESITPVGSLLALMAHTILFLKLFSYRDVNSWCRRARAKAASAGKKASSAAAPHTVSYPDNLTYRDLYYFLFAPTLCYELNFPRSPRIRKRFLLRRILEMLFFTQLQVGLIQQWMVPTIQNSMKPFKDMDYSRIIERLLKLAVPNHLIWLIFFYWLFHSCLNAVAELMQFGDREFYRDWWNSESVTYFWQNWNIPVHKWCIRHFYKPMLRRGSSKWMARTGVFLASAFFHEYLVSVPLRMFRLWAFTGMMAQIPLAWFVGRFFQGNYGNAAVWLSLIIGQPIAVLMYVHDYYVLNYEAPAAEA
Experiment: Human Enzyme Assay (DGAT1 inhibition)
Conditions: human DGAT1 expressed in insect cell (sf9) membranes; 14C oleoyl coenzyme A, 30 minutes, room temperature
measurement.label: IC50 (nM)

* O=C(O)CC1CCC(c2ccc(NC(=O)c3cnc(Nc4ccccc4)o3)cc2)CC1 (stereo not shown) [Example 1] | 100
